Conditions: in toluene, 293.15 K
endpoint name: solubility (mole fraction)
Answer using only a numeral; do not append any unit.

Q. Data request, read-out solubility (mole fraction), for `N=C(Nc1ccccc1)Nc1ccccc1`
A. 0.00354

###

Details: in toluene, 285.65 K
endpoint name: solubility (mole fraction)
Answer with a bare number; do not write a unit.

Q. Consider the compound `N=C(Nc1ccccc1)Nc1ccccc1` and give its measured solubility (mole fraction).
A. 0.00249

###

Settings: in isobutanol, 295.65 K
endpoint name: solubility (mole fraction)

Q. Name the reported solubility (mole fraction) value associated with the molecule `N=C(Nc1ccccc1)Nc1ccccc1`
A. 0.0265

###

Conditions: in acetone, 303.15 K
endpoint name: solubility (mole fraction)
Answer as a number with no unit attached.

Q. Fill in: solubility (mole fraction) of `N=C(Nc1ccccc1)Nc1ccccc1` is ___
A. 0.106

###

Settings: in acetone, 283.15 K
endpoint name: solubility (mole fraction)
Just the number, please.

Q. Need solubility (mole fraction) of `N=C(Nc1ccccc1)Nc1ccccc1` , thanks.
A. 0.0599

###

Conditions: in ethanol, 305.65 K
endpoint name: solubility (mole fraction)

Q. Entry `N=C(Nc1ccccc1)Nc1ccccc1` : reported solubility (mole fraction) = ?
A. 0.039

###

Conditions: in ethanol, 280.65 K
endpoint name: solubility (mole fraction)
Keep it simple and answer with nothing but the number.

Q. Name the recorded solubility (mole fraction) for `N=C(Nc1ccccc1)Nc1ccccc1` .
A. 0.0184

###

Settings: in acetonitrile, 295.65 K
endpoint name: solubility (mole fraction)
Reply: number alone, nothing else.

Q. May I ask what solubility (mole fraction) has been recorded for `N=C(Nc1ccccc1)Nc1ccccc1` ?
A. 0.0197

###

Details: in isobutanol, 313.15 K
endpoint name: solubility (mole fraction)
# output: bare number, no unit

Q. Given the compound `N=C(Nc1ccccc1)Nc1ccccc1` , what is its reported solubility (mole fraction)?
A. 0.0446

###

Details: in acetonitrile, 275.65 K
endpoint name: solubility (mole fraction)
Please give only the number in your answer, with no unit.

Q. For the compound shown here, `N=C(Nc1ccccc1)Nc1ccccc1` , give the reported solubility (mole fraction).
A. 0.00909

###

Settings: in n-propanol, 275.65 K
endpoint name: solubility (mole fraction)
Just the number, please, no unit after it.

Q. Name the reported solubility (mole fraction) value associated with the molecule `N=C(Nc1ccccc1)Nc1ccccc1`
A. 0.0174

###

Conditions: in n-butanol, 275.65 K
endpoint name: solubility (mole fraction)
Give the figure by itself; no unit, no explanation.

Q. Please report the recorded solubility (mole fraction) for `N=C(Nc1ccccc1)Nc1ccccc1` .
A. 0.0194

###

Settings: in n-butanol, 305.65 K
endpoint name: solubility (mole fraction)
Form: value (number only, do not type unit).

Q. What solubility (mole fraction) value was documented for this compound, `N=C(Nc1ccccc1)Nc1ccccc1` ?
A. 0.0462

###

Settings: in ethyl acetate, 285.65 K
endpoint name: solubility (mole fraction)
API doc: respond with a numeric literal and nothing else, no unit.

Q. Suppose we examine the compound `N=C(Nc1ccccc1)Nc1ccccc1` ; what solubility (mole fraction) value has been reported?
A. 0.0401

###

Settings: in acetone, 295.65 K
endpoint name: solubility (mole fraction)
In your answer, state the number alone without any accompanying words.

Q. Item under review: `N=C(Nc1ccccc1)Nc1ccccc1` . Reported solubility (mole fraction)?
A. 0.0862

###

Conditions: in toluene, 308.15 K
endpoint name: solubility (mole fraction)
Form rule: numeric answer, no unit written next to it.

Q. Suppose we examine the compound `N=C(Nc1ccccc1)Nc1ccccc1` ; what solubility (mole fraction) value has been reported?
A. 0.00641
